Tested on: CAKI-1 renal
assay-comment: NCI tumour cell line growth inhibition, 48 h
So I've got a bunch of compounds here, and I need their TGI values.

Ask: Which TGI value is on record for COc1ccc(C(c2c(O)c3ccccc3n(C)c2=O)c2c(O)c3ccccc3n(C)c2=O)cc1 ?
Reply: > 100 µM

Ask: Which TGI value is on record for CN(C)CCCc1c[nH]c2ccccc12 ?
Reply: > 100 µM

Ask: Which TGI value is on record for COc1cc(-c2cc(-c3nc4ccc(Cl)cc4[nH]3)[nH]n2)cc(OC)c1OC ?
Reply: 11.1 µM

Ask: Which TGI value is on record for COC(=O)[C@]1(C)CCC[C@@]2(C)C1CCC1=CC3(C(C)C)CCC12OO3 (stereo partly specified) ?
Reply: > 100 µM

Ask: Which TGI value is on record for Cc1cc(O)cc2c1O[C@@]1(C)CCC3[C@@]4(C)CC[C@H](O)C(C)(C)C4CC[C@@]3(C)[C@H]1C2 (stereo partly specified) ?
Reply: 20.6 µM

Ask: Which TGI value is on record for COC1=CC(c2ccc[nH]2)=N/C1=C\c1[nH]c(C)c(C(=O)CCCCC(=O)Nc2ccccc2)c1C ?
Reply: 11.9 µM

Ask: Which TGI value is on record for NC1=N/C(=C2/CCNC(=O)c3[nH]c(Br)cc32)C(=O)N1 ?
Reply: > 100 µM

Ask: Which TGI value is on record for N/N=C1/CCCc2nonc21 ?
Reply: > 100 µM

Ask: Which TGI value is on record for O=c1[nH]nc(Cc2ccc(Cl)cc2)n1/N=C\c1ccc(/C=N/n2c(Cc3ccc(Cl)cc3)n[nH]c2=O)cc1 ?
Reply: > 100 µM

Ask: Which TGI value is on record for COP1(=O)Oc2ccccc2C(=O)C(C(F)(F)F)(C(F)(F)F)O1 (stereo unspecified) ?
Reply: > 100 µM

Ask: Which TGI value is on record for CC1=C(C(=O)NCc2ccccc2)C(c2ccccc2[N+](=O)[O-])C(C(=O)NCc2ccccc2)=C(C)N1 ?
Reply: 50 µM

Ask: Which TGI value is on record for COc1ccc(/C=C/C(=O)N[C@@H]2C(=O)N3[C@@H]2SC(C)(C)[C@@H]3C(=O)O)cc1 ?
Reply: > 100 µM

Ask: Which TGI value is on record for CC(C)OP(=O)(OC(C)C)C(=Nc1ccccc1)NNc1ccc([N+](=O)[O-])cc1 ?
Reply: > 100 µM

Ask: Which TGI value is on record for C1=Cc2nc1c(-c1ccncc1)c1ccc([n-]1)c(-c1ccncc1)c1nc(c(-c3ccncc3)c3ccc([n-]3)c2-c2ccncc2)C=C1.[Zn+2] ?
Reply: > 100 µM

Ask: Which TGI value is on record for NC(=S)N/N=C1/C(=O)N(c2ccc(Cl)cc2Cl)C(=O)C(=O)C1c1nc2ccccc2s1 (stereo unspecified) ?
Reply: > 100 µM

Ask: Which TGI value is on record for Cc1ccc(Cl)c(NC(=O)C(=O)C(C(=O)c2ccncc2)C2OC(=O)c3ccccc32)c1 (stereo unspecified) ?
Reply: > 100 µM

Ask: Which TGI value is on record for O=C(Cc1ccc(Cl)c(Cl)c1)N(CCc1ccc(Cl)c(Cl)c1)CCN1CCCC1 ?
Reply: 3.1 µM

Ask: Which TGI value is on record for CC1(C)CN=C(Nc2cccc(C(F)(F)F)c2)S1 ?
Reply: > 100 µM

Ask: Which TGI value is on record for COc1ccc(-c2nc(-c3nc4ccc(OC)cc4[nH]3)cc3c2[nH]c2ccccc23)cc1 ?
Reply: > 100 µM

Ask: Which TGI value is on record for COC(=O)C1(Cc2ccccc2)Cc2ccc3c(c2C1=O)CCC3 (stereo unspecified) ?
Reply: > 100 µM

Ask: Which TGI value is on record for O=C(NCCO)Nc1c(C(F)(F)F)cc(-c2ccccc2)[nH]c1=O ?
Reply: > 100 µM

Ask: Which TGI value is on record for CN(/N=C/C=N/N(C)C1=NCCCCN1)C1=NCCCCN1 ?
Reply: > 100 µM

Ask: Which TGI value is on record for Clc1c(Cl)c2c(Cl)c(Cl)c1C[P+](c1ccccc1)(c1ccccc1)CC[P+](c1ccccc1)(c1ccccc1)Cc1c(Cl)c(Cl)c(c(Cl)c1Cl)C[P+](c1ccccc1)(c1ccccc1)CC[P+](c1ccccc1)(c1ccccc1)C2 ?
Reply: 33.1 µM

Ask: Which TGI value is on record for Cc1ccc(C)c(-c2csc(Nc3ccc(C)c(C)c3)n2)c1 ?
Reply: > 100 µM

Ask: Which TGI value is on record for CN(C1=NCCO1)c1cccc2c1CCCC2 ?
Reply: > 10 µM

Ask: Which TGI value is on record for CC(C)NC(=O)OCc1c(COC(=O)NC(C)C)n(C)c2c1ccc1ccccc12 ?
Reply: 1.94 µM

* * *

Tested on: M14 melanoma
assay-comment: NCI tumour cell line growth inhibition, 48 h
So I've got a bunch of compounds here, and I need their TGI values.
Could you give me the number in µM? Just the number is fine.

Ask: Which TGI value is on record for COc1cc([C@@H]2c3[nH]c4ccccc4c3C(Nc3ccc([N+](=O)[O-])cc3)[C@H]3COC(=O)N23)cc(OC)c1O (some centres not stated) ?
Reply: 2.2

Ask: Which TGI value is on record for N#CC1=C(N)OC(c2ccc([N+](=O)[O-])cc2)C1(C#N)C#N (configuration not stated) ?
Reply: 38.9

Ask: Which TGI value is on record for COc1cc(-c2cc(-c3nc4ccc(Cl)cc4[nH]3)[nH]n2)cc(OC)c1OC ?
Reply: 9.96

Ask: Which TGI value is on record for CC(=O)N=c1ccc2nc3c(cc(N)c4ccccc43)oc-2c1 ?
Reply: 3.86

Ask: Which TGI value is on record for O=C(c1cccnc1)N1N=C(c2ccc(Cl)cc2)CC1(O)c1cc(F)c(Cl)cc1Cl (configuration not stated) ?
Reply: 91.9

* * *

So I've got a bunch of molecules here, and I need their TGI values.
Test system: HCC-2998 colon
assay-comment: NCI tumour cell line growth inhibition, 48 h
Could you give me the number in µM? Just the number is fine.

Ask: Which TGI value is on record for CC(C)n1c2c([n+](C)c1/C=C/c1ccccc1)C(=O)c1ccccc1C2=O ?
Reply: 2.06

Ask: Which TGI value is on record for COc1cc(-c2cc(-c3nc4ccc(Cl)cc4[nH]3)[nH]n2)cc(OC)c1OC ?
Reply: 18.7

Ask: Which TGI value is on record for COc1ccccc1CNCCCN1C(=O)c2ccc3c4c(ccc(c24)C1=O)C(=O)N(CCCNCCCN)C3=O ?
Reply: 1.98

Ask: Which TGI value is on record for O=C(O)CC/C(=N\Nc1nsc2ccccc12)c1ccc(Cl)cc1 ?
Reply: 36.8

* * *

Test system: NCI-H226 lung
assay-comment: NCI tumour cell line growth inhibition, 48 h; in the data active means GI50 below about 0.43 µM; inactive means the rest
Answer with one of the outcomes active, inactive

Ask: Which outcome was entered for the compound Nc1ccc(/C=N/Nc2ccnc3c(N)cccc23)c2cccnc12 in this test?
Reply: inactive

Ask: Which outcome was entered for the compound CCCN(CCC)c1ccc(/C=N/NC(=O)c2cccnc2)c(Cl)c1 in this test?
Reply: active

Ask: Which outcome was entered for the compound COc1ccc([N+](=O)[O-])c(S(=O)(=O)c2ccc(Cl)cc2)n1 in this test?
Reply: inactive

Ask: Which outcome was entered for the compound Cc1ccc(C)c(-c2csc(Nc3ccc(C)c(C)c3)n2)c1 in this test?
Reply: inactive

* * *

So I've got a bunch of molecules here, and I need their TGI values.
Tested on: SK-MEL-5 melanoma
assay-comment: NCI tumour cell line growth inhibition, 48 h

Ask: For the record COP1(=O)Oc2ccccc2C(=O)C(C(F)(F)F)(C(F)(F)F)O1 (stereo not drawn) , what value of TGI is listed for SK-MEL-5 melanoma?
Reply: > 100 µM

Ask: For the record OC1CN2CCS[C@H]2C(O)C1O (stereo partly drawn) , what value of TGI is listed for SK-MEL-5 melanoma?
Reply: > 100 µM

Ask: For the record NC1=N/C(=C2/CCNC(=O)c3[nH]c(Br)cc32)C(=O)N1 , what value of TGI is listed for SK-MEL-5 melanoma?
Reply: > 100 µM

* * *

So I've got a bunch of compounds here, and I need their TGI values.
Tested on: RPMI-8226 leukemia
assay-comment: NCI tumour cell line growth inhibition, 48 h

Ask: Which TGI value is on record for COC(=O)C(Cc1ccccc1)OC(=O)C(N)CC(=O)O (stereo not drawn) ?
Reply: > 100 µM

Ask: Which TGI value is on record for CN(C)c1ccc(/C=C(\NC(=O)c2ccccc2)C(=O)NC(CCC(=O)O)C(=O)O)cc1 (stereo not drawn) ?
Reply: > 100 µM

Ask: Which TGI value is on record for c1ccc2c(c1)Nc1nc3nonc3nc1N2 ?
Reply: > 100 µM
